Molecular target: human RORγ (Homo sapiens)
Construct: human, NM_005060.3 and from Ser253 to Lys518; expressed in transfected cells; host or cells: CHO cells (transient co-transfection with pG5-Luc reporter)
Sequence (P51449 253-518): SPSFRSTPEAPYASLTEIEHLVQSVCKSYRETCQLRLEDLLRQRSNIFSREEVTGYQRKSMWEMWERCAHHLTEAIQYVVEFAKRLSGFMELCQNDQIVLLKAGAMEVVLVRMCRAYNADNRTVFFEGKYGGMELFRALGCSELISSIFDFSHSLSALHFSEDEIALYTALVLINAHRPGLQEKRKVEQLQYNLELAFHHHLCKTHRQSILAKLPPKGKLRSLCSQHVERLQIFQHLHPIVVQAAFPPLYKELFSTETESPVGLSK
Test: Luciferase reporter gene assay of inhibitory effect against RORγ transcriptional activity (GAL4-hRORγ plasmid in CHO cells)
Assay type: cell-based
Details: read-out: LUC EC50 (μM) hRORg
RECORDED ENDPOINT: EC50

molecule="Cc1ccc(NC(=O)[C@H]2C[C@H](O)C[C@@H]2c2nnc([C@H]3C[C@@H](CC(C)C)C3)n2C2CC2)c(C)c1 (racemic)" study_system="human RORγ (Homo sapiens)" reported="< 3 µM"
molecule="Cc1ccc(NC(=O)CC(c2nnc([C@H]3C[C@@H](CC(C)C)C3)n2C2CC2)C2CN(C)C2)c(C)c1 (mixture of isomers)" study_system="human RORγ (Homo sapiens)" reported="> 3 µM"
molecule=Cc1ccc(NC(=O)C[C@H](CCC(=O)O)c2noc(-c3cc(CCC(C)(C)C)on3)c2C2CC2)c(F)c1 study_system="human RORγ (Homo sapiens)" reported="< 3 µM"
molecule="CC(=O)N1C[C@H](C(=O)Nc2ccc(C)cc2C)[C@@H](c2nnc(CCC(C)(C)C)n2C2CC2)C1 (racemic)" study_system="human RORγ (Homo sapiens)" reported="< 3 µM"
molecule="Cc1c(Cl)cccc1NC(=O)CC(CCCO)c1nnc(CCC(C)C)n1C1CC1 (racemic)" study_system="human RORγ (Homo sapiens)" reported="< 3 µM"
molecule=Cc1ccc(C2CC2)cc1NC(=O)CCc1nnc(CCC(C)C)n1C1CC1 study_system="human RORγ (Homo sapiens)" reported="> 3 µM"
